# TEST_SUMMARY: Volume of distribution at steady state in rat
# Type: ADME, organism-based
# CONDITION_DESCRIPTION: in vivo, read-out: Vdss
PROPERTY_MEASURED: Vd (L/kg)
Reply numerically in L/kg, unit not repeated.

Fill in: Vd of CC(C)(C)C1CCC2(CC1)CCN(c1ccc(OC(F)(F)F)cc1)C(=O)N2Cc1ccc(C(=O)Nc2nnn[nH]2)cc1 (stereo unspecified) is ___
1.3

----------
# TEST_SUMMARY: Half life in mouse
# Assay type: ADME, organism-based
# CONDITION_DESCRIPTION: in vivo
PROPERTY_MEASURED: half-life (h)
Please state the figure in h; there is no need to write the unit.

Query (compound): CC(C)(C)C1CCC2(CC1)CCN(c1ccc(OC(F)(F)F)cc1)C(=O)N2Cc1ccc(C(=O)Nc2nnn[nH]2)cc1 (centres undefined) ; field requested: half-life
3.5

Can you handle CC(C)(C)C1CCC2(CC1)CN(c1ccc(OC(F)(F)F)cc1)C(=O)N2Cc1ccc(C(=O)Nc2nnn[nH]2)cc1 (centres undefined) next?
5.5

Next: CC(C)(C)C1CCC2(CC1)CN(c1cc(Cl)cc(Cl)c1)C(=O)N2Cc1ccc(C(=O)NCCC(=O)O)cc1 (centres undefined)
2.3

Can you check CC(C)(C)C1CCC2(CC1)CCN(c1ccc(OC(F)(F)F)cc1)C(=O)N2Cc1ccc(C(=O)NCc2nn[nH]n2)cc1 (centres undefined) next?
4.7
